- Test system: liver cholesterol esters
- Experiment Notes: In Vivo Assay of Hypolipidemic Agents Using the Hyperlipidemic Hamster
- Run Parameters: Mesocricetus auratus, 168 h; 50 mpk, oral gavage in corn oil once daily, seven days; 0.5% cholesterol diet; percent reduction versus control; read-out: In Vivo 50 mpk % Redn. L/CE
change in vivo at 50 mg/kg values, listed per item
Value expressed in %; do not type the unit.

Example cases with answers are listed next.
CCCCCCCCCCCC(=O)NC(CN1CCN(C)CC1)c1ccccc1 (centres unmarked): 0
CCCCCCCC/C=C\CCCCCCCC(=O)NC(CN1CCC(=NO)CC1)c1ccccc1 (centres unmarked): -21
CCCCCC/C=C\CCCCCCCC(=O)NC(CN1CCN(C)CC1)c1ccccc1 (centres unmarked): -37
CCCCCCCC/C=C\CCCCCCCC(=O)NC(CN1CCNCC1)c1ccccc1 (centres unmarked): -54
O=C(NC(CN1CCC(O)CC1)c1ccccc1)C(c1ccccc1)c1ccccc1 (centres unmarked): -25
CCCCCCCCCCCCCCC(C)(C)C(=O)NC(CN1CCN(C)CC1)c1ccccc1 (centres unmarked): -40
O=C(NC(CN1CCC2(CC1)OCCO2)c1ccccc1)C(c1ccccc1)c1ccccc1 (centres unmarked): -26
O=C(CCCCCCCCCCOc1ccccc1)NC(CN1CCCCC1)c1ccccc1 (centres unmarked): 0

// next entry
Qu. Under liver cholesterol esters: change in vivo at 50 mg/kg value of O=C(NC(CN1CCOCC1)c1ccccc1)C(c1ccccc1)c1ccccc1 (centres unmarked) ?
Ans. -15

* * *

inhibition at 10 µM reference
- Target Or System: ACAT (Rattus norvegicus)
- Construct: Rat liver microsomes are used as the source of ACAT; from tissue; host or cells: rat liver microsomes
- Experiment Notes: ACAT Assay (in vitro), transfer of tritiated oleic acid from acyl-CoA to cholesterol, rat liver microsomes
- Assay type: biochemical
- Run Parameters: 10 μM, read-out: % ACAT Inhib. @10 μM
Please respond with the number in % and leave the unit unwritten.

Consider the following illustrative entries.
CCCCCCCC/C=C\CCCCCCCC(=O)NC(CN1CCN(C)CC1)c1ccccc1 (stereo not drawn): 98
CCCCCCCC/C=C\CCCCCCCC(=O)NC(CN1CCC(O)CC1)c1ccccc1 (stereo not drawn): 98
O=C(NC(CN1CCC(=NO)CC1)c1ccccc1)C(c1ccccc1)c1ccccc1 (stereo not drawn): 94
CCCCCCCCCCCCCCCC(=O)NC(CN1CCN(C)CC1)c1ccccc1 (stereo not drawn): 87
CCCCCCCC/C=C\CCCCCCCC(=O)NC(CC1CCCCC1)c1ccccc1 (stereo not drawn): 92
CCCCCCCC/C=C\CCCCCCCC(=O)NC(CN1CCC(N)CC1)c1ccccc1 (stereo not drawn): -90
CCCCCCCC/C=C\CCCCCCCC(=O)NC(CN1CCC2(CC1)OCCO2)c1ccccc1 (stereo not drawn): 93
O=C(NC(CN1CCC2(CC1)OCCO2)c1ccccc1)C(c1ccccc1)c1ccccc1 (stereo not drawn): 94

Qu. Recorded inhibition at 10 µM of CCCCCCCC/C=C\CCCCCCCC(=O)NC(CN1CCCCC1)c1ccccc1 (stereo not drawn) , please.
Ans. 94

Qu. State the recorded inhibition at 10 µM for this entry: CN1CCN(CC(NC(=O)CCCCCCCCCCOc2ccccc2)c2ccccc2)CC1 (stereo not drawn)
Ans. 80

Qu. What measured inhibition at 10 µM goes with CN1CCN(CC(NC(=O)C(c2ccccc2)c2ccccc2)c2ccccc2)CC1 (stereo not drawn) ?
Ans. 71

Qu. I would be grateful if you could share the reported inhibition at 10 µM for CCCCCCCC/C=C\CCCCCCCC(=O)NC(CN1CCN(C(=O)OC(C)(C)C)CC1)c1ccccc1 (stereo not drawn) .
Ans. 100

* * *

Let's look at some molecules and their measured inhibition at 10 µM.
- Target Or System: ACAT (Rattus norvegicus, UniProt Q7TQM4)
- Construct: Rat liver microsomes are used as the source of ACAT; from tissue; host or cells: rat liver microsomes
- Sequence (Q7TQM4 whole entry): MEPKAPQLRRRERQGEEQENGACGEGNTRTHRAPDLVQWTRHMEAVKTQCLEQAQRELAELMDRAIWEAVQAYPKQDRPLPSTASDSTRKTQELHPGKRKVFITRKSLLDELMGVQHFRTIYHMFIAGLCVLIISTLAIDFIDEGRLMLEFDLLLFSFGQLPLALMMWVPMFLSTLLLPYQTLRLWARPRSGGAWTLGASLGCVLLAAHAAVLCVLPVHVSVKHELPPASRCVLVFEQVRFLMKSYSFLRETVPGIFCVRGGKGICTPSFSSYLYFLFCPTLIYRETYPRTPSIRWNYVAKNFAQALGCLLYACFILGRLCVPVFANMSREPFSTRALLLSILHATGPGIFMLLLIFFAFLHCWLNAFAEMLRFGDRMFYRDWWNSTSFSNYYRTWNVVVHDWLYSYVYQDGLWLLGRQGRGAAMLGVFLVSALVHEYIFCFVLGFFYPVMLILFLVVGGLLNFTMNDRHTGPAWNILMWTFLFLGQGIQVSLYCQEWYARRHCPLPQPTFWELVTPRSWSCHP
- Experiment Notes: ACAT Assay (in vitro), transfer of tritiated oleic acid from acyl-CoA to cholesterol, rat liver microsomes
- Type: biochemical
- Run Parameters: 10 μM, read-out: % ACAT Inhib. @10 μM
The reply should be a number in %, with the unit left off.

Before answering, review these 3 worked examples.
CCCCCCCCCCCCCCCC(=O)NC(C(=O)N1CCN(C)CC1)c1ccccc1 (stereo not drawn): 95
CCCCCCCCCCC(C)(C)C(=O)NC(CN1CCN(C)CC1)c1ccccc1 (stereo not drawn): 94
CCCCCC/C=C\CCCCCCCC(=O)NC(CN1CCN(C)CC1)c1ccccc1 (stereo not drawn): 97

Qu. Which value of inhibition at 10 µM has been reported for O=C(NC(CN1CCC(O)CC1)c1ccccc1)C(c1ccccc1)c1ccccc1 (stereo not drawn) in the records?
Ans. 83

Qu. What value of inhibition at 10 µM has been recorded for this entry: O=C(NC(CN1CCCCC1)c1ccccc1)C(c1ccccc1)c1ccccc1 (stereo not drawn)
Ans. 64

Qu. Reported inhibition at 10 µM for CCCCCCCCCCCCCCCCCC(=O)NC(CN1CCN(C)CC1)c1ccccc1 (stereo not drawn) : what is it?
Ans. 90

Qu. Fill blank: measured inhibition at 10 µM of the molecule CCCCCCCC/C=C\CCCCCCCC(=O)NC(CN1CCC(=O)CC1)c1ccccc1 (stereo not drawn) is ____.
Ans. 100

Qu. Please give the measured inhibition at 10 µM for this molecule: O=C(CCCCCCCCCCOc1ccccc1)NC(CN1CCCCC1)c1ccccc1 (stereo not drawn)
Ans. 84

Qu. # inhibition at 10 µM lookup, item O=C1CCN(CC(NC(=O)C(c2ccccc2)c2ccccc2)c2ccccc2)CC1 (stereo not drawn)
Ans. 90

Qu. Look up inhibition at 10 µM for this molecule: CCCCCCCC/C=C\CCCCCCCC(=O)NC(CN1CCC(OC)(OC)CC1)c1ccccc1 (stereo not drawn)
Ans. 93

Qu. Given the molecule CCCCCCCCCCCCC(C)(C)C(=O)NC(CN1CCN(C)CC1)c1ccccc1 (stereo not drawn) , what is its reported inhibition at 10 µM?
Ans. 95

Qu. Would you kindly share the measured inhibition at 10 µM for CCCCCCCC/C=C\CCCCCCCC(=O)NC(CN1CCOCC1)c1ccccc1 (stereo not drawn) ?
Ans. 99

Qu. Look up inhibition at 10 µM: CCCCCCCC/C=C\CCCCCCCC(=O)NC(CN1CCC(=NO)CC1)c1ccccc1 (stereo not drawn)
Ans. 100

Qu. Find the recorded inhibition at 10 µM belonging to CCCCCCCCCCCC(=O)NC(CN1CCN(C)CC1)c1ccccc1 (stereo not drawn) and report it.
Ans. 58

Qu. Can you share its inhibition at 10 µM? I mean this molecule: CCCCCCCCCCCCCCC(C)(C)C(=O)NC(CN1CCN(C)CC1)c1ccccc1 (stereo not drawn)
Ans. 97

* * *

- Target Or System: ACAT (Rattus norvegicus)
- Construct: Rat liver microsomes are used as the source of ACAT; from tissue; host or cells: rat liver microsomes
- Experiment Notes: ACAT Assay (in vitro), transfer of tritiated oleic acid from acyl-CoA to cholesterol, rat liver microsomes
- Format: biochemical
- Run Parameters: 10 μM, read-out: % ACAT Inhib. @10 μM
Where inhibition at 10 µM equals or exceeds 90%, the correct label is fulfilled; where it does not, the label is not fulfilled.

CC(=O)OC1CCN(CC(NC(=O)C(c2ccccc2)c2ccccc2)c2ccccc2)CC1 (centres unmarked): not fulfilled
CCCCCCCC/C=C\CCCCCCCC(=O)NC(CN1CCNCC1)c1ccccc1 (centres unmarked): not fulfilled

Qu. Check the entry CCCCCCCCCCCCCCCC(=O)NC(CN1CCC2(CC1)OCCO2)c1ccccc1 (centres unmarked) : does inhibition at 10 µM equal or exceed 90%?
Ans. fulfilled

* * *

- Target Or System: ACAT (Rattus norvegicus)
Note to self: IC50 under 3000 nM means met, ties and anything higher get not met.

Completed entries (count: 3):
CCCCCCCCCCCCCC(=O)NC(CN1CCN(C)CC1)c1ccccc1 (centres unmarked): not met
CCCCCCCC/C=C\CCCCCCCC(=O)NC(CN1CCOCC1)c1ccccc1 (centres unmarked): met
CCCCCCCCCCCCC(C)(C)C(=O)NC(CN1CCN(C)CC1)c1ccccc1 (centres unmarked): met

Turning now to a further record.
Qu. Is 3000 nM strictly greater than the molecule's reported IC50? molecule: COC1CCN(CC(NC(=O)C(c2ccccc2)c2ccccc2)c2ccccc2)CC1 (centres unmarked)
Ans. met

* * *

- Target Or System: ACAT (Rattus norvegicus)
- Construct: Rat liver microsomes are used as the source of ACAT; from tissue; host or cells: rat liver microsomes
- Experiment Notes: ACAT Assay (in vitro), transfer of tritiated oleic acid from acyl-CoA to cholesterol, rat liver microsomes
- Format: biochemical
- Run Parameters: 0.1 to 25 μM
Measured IC50 accompanies every entry in the list below.
Kindly answer with a numeric value in nM, unit omitted.

Before answering, review these 6 worked examples.
CCCCCCCC/C=C\CCCCCCCC(=O)NC(CN1CCCCC1)c1ccccc1 (stereo not drawn): 1200
O=C(NC(CN1CCC2(CC1)OCCO2)c1ccccc1)C(c1ccccc1)c1ccccc1 (stereo not drawn): 300
CCCCCCCC/C=C\CCCCCCCC(=O)NC(Cc1ccccc1)C1CCCCC1 (stereo not drawn): 170
CCCCCCCCCCC(C)(C)C(=O)NC(CN1CCN(C)CC1)c1ccccc1 (stereo not drawn): 390
CCCCCCCC/C=C\CCCCCCCC(=O)NC(CN1CCC(=NO)CC1)c1ccccc1 (stereo not drawn): 30
CCCCCCCC/C=C\CCCCCCCC(=O)NC(CN1CCC(NC(=O)C(F)(F)F)CC1)c1ccccc1 (stereo not drawn): 800

Qu. I have this compound here, CCCCCCCC/C=C\CCCCCCCC(=O)NC(CN1CCN(C(=O)OC(C)(C)C)CC1)c1ccccc1 (stereo not drawn) , and I need its recorded IC50.
Ans. 60

Qu. Request the reported IC50 associated with CCCCCCCCCCCCCCCC(=O)NC(CN1CCC2(CC1)OCCO2)c1ccccc1 (stereo not drawn)
Ans. 160

Qu. // IC50 lookup, key: CCCCCCCCCCCCCCCC(=O)NC(C(=O)N1CCN(C)CC1)c1ccccc1 (stereo not drawn)
Ans. 1800
